ASSAY_SYSTEM: T1, human FcRn/b2M (human, UniProt P61769 21-119, biotinylated)
T1 construct: bought recombinant biotinylated protein (ACRO FCM-H82W4 or Immunitrack ITF01); also called hFcRn; hFcRn/hb2M
ASSAY_NAME: SPR off-rate; pH 7.4 vs pH 6.0;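 note: surface plasmon resonance with diluted periplasmic extracts flowed over ligand surfaces, 120 s association and 600–3600 s dissociation at 25 °C, running buffer containing 150 mM NaCl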
MEASUREMENT_TYPE: kd ratio pH 7.4/6.0

Examples with their reported kd ratio pH 7.4/6.0 follow.
BINDER | TEST_VALUE
T0263018B11 T96Q (VHH, name in Kabat numbering, FLAG3-His6 tagged) VHH: EVQLVESGGGVVQPGGSLRLSCAASGFTFSSYAMYWVRQAPGKGLEWVSAISSGGGSTDYADSVKGRFTISRDNSKNTLYLQMNSLRPEDTALYYCAADQLYTSLTWYSYWGQGTLVTVSS | 35
T0263018B11 S52T (VHH, name in Kabat numbering, FLAG3-His6 tagged) VHH: EVQLVESGGGVVQPGGSLRLSCAASGFTFSSYAMYWVRQAPGKGLEWVSAITSGGGSTDYADSVKGRFTISRDNSKNTLYLQMNSLRPEDTALYYCAADTLYTSLTWYSYWGQGTLVTVSS | 24

I. T0263018B11 T28P (VHH, name in Kabat numbering, FLAG3-His6 tagged) VHH: EVQLVESGGGVVQPGGSLRLSCAASGFPFSSYAMYWVRQAPGKGLEWVSAISSGGGSTDYADSVKGRFTISRDNSKNTLYLQMNSLRPEDTALYYCAADTLYTSLTWYSYWGQGTLVTVSS
II. T0263018B11 L100aM (VHH, name in Kabat numbering, FLAG3-His6 tagged) VHH: EVQLVESGGGVVQPGGSLRLSCAASGFTFSSYAMYWVRQAPGKGLEWVSAISSGGGSTDYADSVKGRFTISRDNSKNTLYLQMNSLRPEDTALYYCAADTLYTSMTWYSYWGQGTLVTVSS
Request: Which is greater in kd ratio pH 7.4/6.0, the first item I or the second item II ? Give the label of your selection.
Result: II
